# test: reduction of polyQ htt aggregates in cells – imaging, exon1htt(103Q)mCFP cells, high-content imaging, primary screen (AID 483);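 also: compound exposure lasted 3 days before fixation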;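 as to nuclei count: percent of the per-plate median nuclei count of sample wells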
# reportedConditions: exon1htt(103Q)mCFP cell line, aggregate imaging, at 2 µM; measured here: cell count, toxicity
endpoint: nuclei count (%)
Kindly answer with a numeric value in %, unit omitted.

CCOC(=O)Cc1nnc(NC(=O)CSc2nnc3c4ccccc4n(C(C)C)c3n2)s1    94.3
Cc1ccc(-c2cc(C(=O)N3CCCC3)no2)cc1    19.5
Cc1cc2c(nn1)CCC/C2=N\O    99.1

[Q] Need nuclei count, item COc1ccccc1OC(=O)c1ccc2nsnc2c1
[A] 87.8

[Q] Same read-out for CCOCCCNC(=O)c1ccc2c(c1)ncn2C1CCCC1 ?
[A] 100

* * *

# system: Muscarinic acetylcholine receptor M4 (Homo sapiens) (UniProt P08173)
# Sequence (P08173 whole entry, looked up): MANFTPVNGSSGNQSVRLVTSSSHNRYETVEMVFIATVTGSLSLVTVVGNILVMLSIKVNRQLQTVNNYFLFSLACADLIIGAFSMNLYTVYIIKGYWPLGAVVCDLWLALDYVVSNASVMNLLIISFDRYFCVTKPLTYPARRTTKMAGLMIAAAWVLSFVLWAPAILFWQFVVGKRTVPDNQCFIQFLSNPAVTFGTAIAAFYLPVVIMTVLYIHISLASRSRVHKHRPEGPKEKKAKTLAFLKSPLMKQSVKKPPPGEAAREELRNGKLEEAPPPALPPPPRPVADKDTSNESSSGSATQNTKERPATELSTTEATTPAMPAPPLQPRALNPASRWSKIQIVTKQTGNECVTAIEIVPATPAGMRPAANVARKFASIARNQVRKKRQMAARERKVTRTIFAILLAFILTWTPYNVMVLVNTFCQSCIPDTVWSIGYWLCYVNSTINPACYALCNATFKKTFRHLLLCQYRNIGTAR
# test: M4-linked GIRK flux change, two-sided – cell-based, HEK293 M4/GIRK, thallium flux, BTC-AM, M4 allosteric agonist project, primary screen (AID 625);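 also: thallium influx through GIRK channels coupled to M4 in HEK293 cells with BTC-AM dye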
# reportedConditions: at 10 µM, actives lie on both sides
endpoint: fluorescence slope
Answer as a number with no unit attached.

Observe how each entry below is paired with its result.
CCOc1ccc(C2/C(=C(/O)c3ccccc3)C(=O)C(=O)N2CCCN(C)C)cc1OC (stereo not drawn)    0.00491
CC1Oc2ccccc2N(CC(=O)N(Cc2ccccc2)Cc2ccccn2)C1=O (stereo not drawn)    0.00604
COC(=O)c1ccc(COc2ncnc3c(Cl)cc(Cl)cc23)o1    0.00494
CCCCCCn1c(SCCCC)nc2c1c(=O)[nH]c(=O)n2C    0.00572
O=C(O)CCN1C(=O)c2ccccc2C1=O    0.00348
CCc1ncc(C(O)c2cccc(OC)c2OC)n1C (stereo not drawn)    0.00484
Cn1cnnc1SCC(=O)Nc1ccccc1Sc1ccccc1    0.00628
COc1ccc(N2CCN(c3oc(COc4ccccc4)nc3C#N)CC2)cc1    0.00622

[Q] Request body: readout fluorescence slope, system Muscarinic acetylcholine receptor M4 (Homo sapiens) (UniProt P08173), query CCn1cc(C(=O)NCC2COc3ccccc3O2)c2cc(OC)c(OC)cc2c1=O (stereo not drawn) . Return the value.
[A] 0.00554

[Q] Same read-out for Cc1ccccc1NC(=O)c1ccccc1 ?
[A] 0.00509

[Q] Same read-out for CC(C)NC(=O)NC(=O)COc1cccc2c1OC(C)(C)C2 ?
[A] 0.00684

* * *

# test: reduction of polyQ htt aggregates in cells – imaging, exon1htt(103Q)mCFP cells, high-content imaging, primary screen (AID 483);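 also: compound exposure lasted 3 days before fixation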
# reportedConditions: exon1htt(103Q)mCFP cell line, aggregate imaging, at 2 µM; stronger effect = higher value
Catalogue of inhibition of aggregation readings, one per entry.
Kindly answer with a numeric value in %, unit omitted.

Observe how each entry below is paired with its result.
C/C(=C\c1cc(C(=O)O)c(C)o1)CO    4.9
O=C(O)C1CC(=O)N(c2ccc(OCc3c(F)cccc3Cl)cc2)C1 (stereo unspecified)    -13
CC(Oc1ccc2oc(-c3ccccc3)c(C(=O)O)c2c1)C(=O)O (stereo unspecified)    9
CSc1nc(N2CCOCC2)c2c(c1C#N)CCCCC2    -18.9

[Q] Need inhibition of aggregation, item COC(=O)C1(C)NC(c2ccco2)C2C(=O)N(c3ccc(C)cc3)C(=O)C21 (stereo unspecified)
[A] -8.7
